| molecule | melting point |
| --- | --- |
| Cc1ccc(O)c(N=Nc2ccccc2)c1 | 108 °C |
| CC(Br)CBr (configuration not stated) | -55.5 °C |
| CCCCCCCCCCCCCCCCCCN(C)C | 22.9 °C |
| COCCOCCOC | -68 °C |
| Cc1ccc(C)c(C(=O)O)c1 | 132 °C |
| CCN(CC)CCOC(=O)c1ccc(N)cc1Cl.Cl | 177 °C |
| COc1ccccc1Oc1ccccc1 | 79 °C |
| CCCCOC(=O)CCCC | -92.8 °C |
| Cc1cnc2ccccc2n1 | 180 °C |
| NC(=O)c1c(F)cccc1F | 146 °C |
| OCCSCCCCCCCCCCSCCO | 69.5 °C |
| CCC1(c2ccccc2)C(=O)NC(=O)NC1=O | 174 °C |
| COP(=S)(OC)Oc1cc(Cl)c(Cl)cc1Cl | 41 °C |
| CC(O)[C@H]1CC[C@H]2[C@@H]3CC[C@@H]4C[C@@H](O)CC[C@]4(C)[C@H]3CC[C@]12C (some centres not stated) | 244 °C |
| C1CN2CCN1CC2 | 159 °C |
| CN(C)P(=O)(N(C)C)N(C)C | 7.2 °C |
| Cc1ccc(C)c2ccccc12 | 7.6 °C |
| Cc1cccs1 | -63.4 °C |
| O=Cc1ccc(O)c(Cl)c1 | 139 °C |
| CCCCC(=O)Cl | -110 °C |
| O=C1C(Cl)=C(Cl)C(=O)C(Cl)=C1Cl | 290 °C |
| CCCCCCCCCCCC(=O)OOC(=O)CCCCCCCCCCC | 49 °C |
| O=C(CCNNC(=O)c1ccncc1)NCc1ccccc1 | 152 °C |
| Cc1cc(-c2ccc(N=C=O)c(C)c2)ccc1N=C=O | 71 °C |
| CCC1(C)OC(=O)NC1=O (configuration not stated) | 46 °C |
| C=C(c1ccccc1)c1ccccc1 | 8.2 °C |
| Cc1ccc2cnccc2c1 | 85.5 °C |
| CCc1ccc(O)c(OC)c1 | -7 °C |
| CC(=O)Oc1cc(C(C)C)c(OCCN(C)C)cc1C | 144 °C |
| O=C(Cl)C=Cc1ccccc1 | 36 °C |
| CN1C(CCl)Nc2cc(Cl)c(S(N)(=O)=O)cc2S1(=O)=O (configuration not stated) | 225 °C |
| Cc1cc(=O)c2ccccc2[nH]1 | 234 °C |

====

measure: melting point (°C)

| compound | units-label | quantitative-readout |
| --- | --- | --- |
| CC1=CCCC(C)(C)C1/C=C/C(C)=C/C=C/C(C)=C/C=C/C=C(C)/C=C/C=C(C)/C=C/C1=C(C)CCCC1(C)C (centres undefined) | °C | 188 |
| Cn1c(=O)on(-c2ccc(Cl)c(Cl)c2)c1=O | °C | 123 |
| CC1(C)OC(=O)NC1=O | °C | 76.5 |
| CCc1nn(C)c(C(=O)NCc2ccc(C(C)(C)C)cc2)c1Cl | °C | 61.5 |
| CC(C)CSCC(C)C | °C | -106 |
| O=C(O)c1ccc(F)c(F)c1 | °C | 123 |
| c1ccc(Nc2ccc3ccccc3c2)cc1 | °C | 108 |
| Oc1ccc(Br)c2cccnc12 | °C | 124 |
| CN(C)c1ccc(O)cc1 | °C | 77 |
| CC(C)S(=O)(=O)n1c(N)nc2ccc(/C(=N/O)c3ccccc3)cc21 | °C | 198 |
| COCCOCCOCCO | °C | -44 |
| c1ccc(CCCc2ccccc2)cc1 | °C | 6 |
| Cc1cccc(C(=O)O)c1S(=O)(=O)NC(=O)Nc1nc(OCC(F)(F)F)nc(N(C)C)n1 | °C | 162 |
| IC(I)I | °C | 119 |
| CCCC(N)=O | °C | 115 |
| O=C1c2c(O)cccc2C(=O)C2C(O)=CC=CC12 (centres undefined) | °C | 280 |
| N#Cc1ccc2ccccc2n1 | °C | 95 |
| O=C(O)c1cc(F)ccc1F | °C | 133 |
| CNC(=O)ON=C(CSC)C(C)(C)C | °C | 57 |
| CC(C)NC(=O)COC(=O)c1ccccc1 | °C | 130 |
| COc1cc2c(cc1OC)[C@]1(O)C(=O)c3ccc4c(c3O[C@@H]1CO2)C=CC(C)(C)O4 | °C | 198 |
| COc1cccc(C)c1 | °C | -47 |
| CCN1C(=O)CCC1=O | °C | 26 |
| CC1CCCC(C)C1O (centres undefined) | °C | 32.5 |
| COc1ccc(Cc2nccc3cc(OC)c(OC)cc23)cc1OC | °C | 148 |
| C=CCN1CCCC1CNC(=O)c1cc(S(=O)(=O)NC)c(N)cc1OC (centres undefined) | °C | 169 |
| O=C(/C=C/c1ccc([N+](=O)[O-])cc1)c1ccccc1 | °C | 159 |
| Oc1ccc(O)cc1 | °C | 172 |
| CC(=O)OCC(C)C | °C | -98.8 |

====

measure: melting point

| compound | result |
| --- | --- |
| O=C(O)c1cc(C(=O)O)c(C(=O)O)cc1C(=O)O | 276 °C |
| O=C(O)c1cccc(Cl)c1[N+](=O)[O-] | 238 °C |
| O=C(O)Cc1ccccc1F | 63 °C |
| CC(C)=CCN1CC[C@@]2(C)c3cc(O)ccc3C[C@@H]1[C@@H]2C | 146 °C |
| CN[C@H](C)[C@@H](O)c1ccc(O)cc1 (racemic) | 153 °C |
| COc1ccc(OC)cc1 | 59 °C |
| O=C(O)CCCCCCCCCF | 49 °C |
| Cc1cc(C)c(Cl)c(O)c1Cl | 87.5 °C |
| CC1(C)CCCCC1 | -33.3 °C |
| CCOC(=O)C1=NN(c2ccc(Cl)cc2Cl)C(C)(C(=O)OCC)C1 (configuration not stated) | 51 °C |
| C[C@]12CC[C@H](O)C[C@H]1CC[C@@H]1[C@@H]2[C@H](O)C[C@]2(C)[C@@H](c3ccc(=O)oc3)CC[C@]12O | 254 °C |
| O=C(O)c1cc(Oc2ccc(C(F)(F)F)cc2Cl)ccc1[N+](=O)[O-] | 150 °C |

====

Note to self: class = bucket of melting point, per Low = under 30 °C, Medium = from 30 °C up to 70 °C, High = 70 °C and over

| compound | class |
| --- | --- |
| O=C1CCCCCCCCCCCCCCO1 | Medium |
| O=C(CCCN1CCN(c2ccccn2)CC1)c1ccc(F)cc1 | High |
| CC(=O)C1CC1 | Low |
| CCCCCCCCCCCCCCCCCCCO | Medium |
| CCOc1ccc(O)cc1 | Medium |
| OC1(c2ccccc2)CCCCC1 | Medium |
| CCOP(=S)(OCC)SCSP(=S)(OCC)OCC | Low |
| FC(C(F)(F)F)C(F)(F)F | Low |
| CCCCCCC(=O)CCCCCC | Medium |
| Cc1c(CN2CCOC(c3ccccc3)C2C)c(=O)n(-c2ccccc2)n1C (stereo not given) | High |
| CCCCCCC(C=O)=Cc1ccccc1 | Medium |
| CCC(C)C1(CC)C(=O)NC(=S)NC1=O (stereo not given) | High |
| C[C@H](CS)C(=O)N1CCC[C@H]1C(=O)O | High |
| CN1CCN(C(=O)OC2c3nccnc3C(=O)N2c2ccc(Cl)cn2)CC1 (stereo not given) | High |

====

| compound | units-label | boiling point |
| --- | --- | --- |
| CCC(=O)OCCc1ccccc1 | °C | 238 |
| CCc1ccccc1 | °C | 136 |
| CCCCNS(=O)(=O)c1ccccc1 | °C | 314 |
| Cc1ccccc1Br | °C | 182 |
| COC(=O)C(Cl)(Cl)Cl | °C | 154 |
| CC(C)c1cccs1 | °C | 153 |
| O=C1C=CCC1 | °C | 136 |
| CC(C)c1ccccc1C(C)C | °C | 204 |
| CCCC(CC)CC(C)C (stereo not drawn) | °C | 158 |
| CCCC(O)(CC)CC | °C | 160 |
| Cc1cc(C)nc(C)c1 | °C | 171 |
| CCCCOCCOC(C)=O | °C | 192 |
| c1ccc2cc3c(cc2c1)-c1cccc2cccc-3c12 | °C | 480 |
| CC(C)CCO | °C | 131 |
| OCCNc1ccccc1 | °C | 280 |
| CCO[Si](C)(OCC)OCC | °C | 142 |
| C=C(C)C1CC=C(C)CC1 (stereo not drawn) | °C | 176 |
| FC(Cl)C(F)(F)Br (stereo not drawn) | °C | 52.5 |

src = the OPERA property sets (Mansouri et al. 2018)
